# testTarget: T1, human CD131 (human, UniProt P32927 17-897)
# T1 sequence: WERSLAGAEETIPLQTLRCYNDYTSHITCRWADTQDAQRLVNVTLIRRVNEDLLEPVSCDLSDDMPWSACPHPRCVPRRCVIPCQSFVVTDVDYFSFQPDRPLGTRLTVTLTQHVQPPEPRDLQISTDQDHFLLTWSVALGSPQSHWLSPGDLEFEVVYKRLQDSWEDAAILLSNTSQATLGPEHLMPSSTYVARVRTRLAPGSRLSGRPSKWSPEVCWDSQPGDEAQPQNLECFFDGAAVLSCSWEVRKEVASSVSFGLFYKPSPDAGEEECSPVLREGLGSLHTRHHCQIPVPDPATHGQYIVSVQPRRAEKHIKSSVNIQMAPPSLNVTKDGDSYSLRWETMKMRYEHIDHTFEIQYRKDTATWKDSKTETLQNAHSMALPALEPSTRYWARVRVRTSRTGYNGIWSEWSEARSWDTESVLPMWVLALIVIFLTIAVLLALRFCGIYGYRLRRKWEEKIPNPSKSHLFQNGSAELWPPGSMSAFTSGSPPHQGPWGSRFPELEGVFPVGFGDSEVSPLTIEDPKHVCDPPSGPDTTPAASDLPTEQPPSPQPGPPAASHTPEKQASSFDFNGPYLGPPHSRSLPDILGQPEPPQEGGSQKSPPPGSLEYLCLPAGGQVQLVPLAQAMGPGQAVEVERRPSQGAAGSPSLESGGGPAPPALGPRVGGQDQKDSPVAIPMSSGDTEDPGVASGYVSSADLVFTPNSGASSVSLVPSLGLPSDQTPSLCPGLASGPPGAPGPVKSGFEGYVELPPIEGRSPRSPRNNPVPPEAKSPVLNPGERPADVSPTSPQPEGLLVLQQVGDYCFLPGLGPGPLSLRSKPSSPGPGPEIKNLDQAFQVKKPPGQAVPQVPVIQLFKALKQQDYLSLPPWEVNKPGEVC
# testProtocol: cell-based or functional assay
readout: IC50 GM-CSF, TF-1 proliferation (pM)
# output: bare number, implied unit pM

1) 9A2-VR24.78 (antibody, V domains shown) VH: EVQLLESGGGLVQPGGSLRLSCAASGFTFPWYRVHWVRQAPGKGLEWVSSIHTHRNYTYYADSVKGRFTISRDNSKNTLYLQMNSLRAEDTAVYYCARFYDSFFDIWGQGTMVTVSS VL: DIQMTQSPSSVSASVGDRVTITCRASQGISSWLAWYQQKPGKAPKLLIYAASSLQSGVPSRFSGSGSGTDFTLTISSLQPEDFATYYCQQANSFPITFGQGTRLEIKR : 650
2) 9A2-VR39.23 (antibody, V domains shown) VH: EVQLLESGGGLVQPGGSLRLSCAASGFTFHHYHTVWVRQAPGKGLEWVSSINGRGRVTYYADSVKGRFTISRDNSKNTLYLQMNSLRAEDTAVYYCARFYDSFFDIWGQGTMVTVSS VL: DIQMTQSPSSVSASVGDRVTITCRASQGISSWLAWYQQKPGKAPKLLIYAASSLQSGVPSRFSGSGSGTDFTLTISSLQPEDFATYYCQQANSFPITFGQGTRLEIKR : 900
3) 9A2-VR39.17 (antibody, V domains shown) VH: EVQLLESGGGLVQPGGSLRLSCAASGFTFPFYHKVWVRQAPGKGLEWVSSINGRGRVTYYADSVKGRFTISRDNSKNTLYLQMNSLRAEDTAVYYCARFYDSFFDIWGQGTMVTVSS VL: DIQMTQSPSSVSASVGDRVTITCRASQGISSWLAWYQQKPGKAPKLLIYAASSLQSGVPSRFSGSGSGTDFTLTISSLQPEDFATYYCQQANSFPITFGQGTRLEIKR : 670

The reported IC50 GM-CSF, TF-1 proliferation of the binder 9A2-VR24.76 (antibody, V domains shown) VH: EVQLLESGGGLVQPGGSLRLSCAASGFTFPWYRVHWVRQAPGKGLEWVSSIQTHGVWTYYADSVKGRFTISRDNSKNTLYLQMNSLRAEDTAVYYCARFYDSFFDIWGQGTMVTVSS VL: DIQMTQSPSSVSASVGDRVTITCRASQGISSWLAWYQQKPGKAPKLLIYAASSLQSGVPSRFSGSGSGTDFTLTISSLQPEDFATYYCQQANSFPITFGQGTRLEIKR was 12400

According to the records, this binder 9A2-VR24.93 (antibody, V domains shown) VH: EVQLLESGGGLVQPGGSLRLSCAASGFTFPWYRVHWVRQAPGKGLEWVSSIRNENGWTYYADSVKGRFTISRDNSKNTLYLQMNSLRAEDTAVYYCARFYDSFFDIWGQGTMVTVSS VL: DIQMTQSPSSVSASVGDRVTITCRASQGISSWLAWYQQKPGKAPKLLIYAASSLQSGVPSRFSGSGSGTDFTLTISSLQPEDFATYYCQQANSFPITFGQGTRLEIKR displays IC50 GM-CSF, TF-1 proliferation of 920
